// data source = ChEMBL document CHEMBL1811786

Target Or Test System: Protein smoothened (Homo sapiens)
Sequence (Q99835 whole entry): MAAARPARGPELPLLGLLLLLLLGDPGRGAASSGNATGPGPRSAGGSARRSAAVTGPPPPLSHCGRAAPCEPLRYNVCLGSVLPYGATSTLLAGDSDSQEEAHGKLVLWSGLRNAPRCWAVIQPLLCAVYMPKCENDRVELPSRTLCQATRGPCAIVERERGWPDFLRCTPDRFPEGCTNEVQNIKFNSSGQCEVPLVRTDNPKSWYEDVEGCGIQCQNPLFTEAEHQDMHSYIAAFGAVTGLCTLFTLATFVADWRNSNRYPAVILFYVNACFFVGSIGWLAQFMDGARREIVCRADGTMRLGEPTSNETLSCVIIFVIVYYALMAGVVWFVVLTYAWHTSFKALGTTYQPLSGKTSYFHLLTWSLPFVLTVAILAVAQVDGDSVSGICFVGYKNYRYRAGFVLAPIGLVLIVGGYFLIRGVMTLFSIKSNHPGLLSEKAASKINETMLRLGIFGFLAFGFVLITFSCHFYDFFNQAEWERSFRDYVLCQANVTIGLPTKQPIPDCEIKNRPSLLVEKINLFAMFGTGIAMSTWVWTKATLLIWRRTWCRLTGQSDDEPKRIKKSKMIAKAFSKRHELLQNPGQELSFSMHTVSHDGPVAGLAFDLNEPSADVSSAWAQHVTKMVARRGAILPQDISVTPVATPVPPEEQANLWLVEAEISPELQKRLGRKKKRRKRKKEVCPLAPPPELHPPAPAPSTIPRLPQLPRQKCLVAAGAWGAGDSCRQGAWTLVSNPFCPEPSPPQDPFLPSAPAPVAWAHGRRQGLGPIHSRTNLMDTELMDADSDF
Assay Method Text: Displacement of BODIPY-cyclopamine from human Smo expressed in HEK293 cells in presence of 20% normal human serum
Assay type: cell-based
Lab note: anything with IC50 below 30 nM is marked satisfied; values at 30 nM or higher are marked not satisfied.

[[record]]
smiles_text = "O=C(Nc1ccnn1-c1ccccc1)N1CCN2C(=O)N([C@H]3C[C@@H]3c3ccccc3)C(=O)[C@@H]2C1"
assigned_class = "satisfied"

[[record]]
smiles_text = "C[C@@]12CN(C(=O)Nc3ccnn3-c3ccccc3)CCN1C(=O)N([C@H]1C[C@@H]1c1ccccc1)C2=O"
assigned_class = "satisfied"

[[record]]
smiles_text = "CN(C)C(=O)c1cc(Cl)c(NC(=O)N2CCN3C(=O)N([C@H]4C[C@@H]4c4ccccc4)C(=O)[C@@H]3C2)c(Cl)c1"
assigned_class = "not satisfied"

[[record]]
smiles_text = "O=C(Nc1ccccc1-c1ccccc1)N1CCN2C(=O)N([C@H]3C[C@@H]3c3ccccc3)C(=O)[C@@H]2C1"
assigned_class = "not satisfied"

[[record]]
smiles_text = "N#Cc1cc(Cl)c(NC(=O)N2CCN3C(=O)N([C@H]4C[C@@H]4c4ccccc4)C(=O)[C@@H]3C2)c(Cl)c1"
assigned_class = "not satisfied"

[[record]]
smiles_text = "O=C(Nc1ccnn1-c1cccc(Cl)c1)N1CCN2C(=O)N([C@H]3C[C@@H]3c3ccccc3)C(=O)[C@@H]2C1"
assigned_class = "not satisfied"

[[record]]
smiles_text = "O=C(Nc1ccnn1-c1cccc(F)c1)N1CCN2C(=O)N([C@H]3C[C@@H]3c3ccccc3)C(=O)[C@@H]2C1"
assigned_class = "satisfied"

[[record]]
smiles_text = "C[C@@]12CN(C(=O)Nc3ccccc3-c3ccccc3)CCN1C(=O)N([C@H]1C[C@@H]1c1ccccc1)C2=O"
assigned_class = "not satisfied"


---

Species: Canis familiaris
Assay Method Text: Clearance in dog
Format: ADME, organism-based, Canis lupus familiaris
Measurement Conditions: in vivo
Lab note: anything with clearance below 6 mL/min/kg is marked fulfilled; values at 6 mL/min/kg or higher are marked not fulfilled.

[[record]]
smiles_text = "CS(=O)(=O)c1cc(Cl)c(NC(=O)N2CCN3C(=O)N([C@H]4C[C@@H]4c4ccccc4)C(=O)[C@@H]3C2)c(Cl)c1"
assigned_class = "fulfilled"

[[record]]
smiles_text = "O=C(Nc1cccc(Cl)c1Cl)N1CCN2C(=O)N([C@H]3C[C@@H]3c3ccccc3)C(=O)[C@@H]2C1"
assigned_class = "fulfilled"

[[record]]
smiles_text = "O=C(Nc1ccnn1-c1ccccc1)N1CCN2C(=O)N([C@H]3C[C@@H]3c3ccccc3)C(=O)[C@@H]2C1"
assigned_class = "fulfilled"

[[record]]
smiles_text = "O=C(Nc1cccnc1-c1ccsc1)N1CCN2C(=O)N([C@H]3C[C@@H]3c3ccccc3)C(=O)[C@@H]2C1"
assigned_class = "not fulfilled"

[[record]]
smiles_text = "C[C@@]12CN(C(=O)Nc3ccnn3-c3ccccc3)CCN1C(=O)N([C@H]1C[C@@H]1c1ccccc1)C2=O"
assigned_class = "not fulfilled"


---

Species on record: Rattus norvegicus
Assay Method Text: Clearance in rat
Format: ADME, organism-based
Measurement Conditions: in vivo
Entries and their clearance
Outcome Measure: clearance (mL/min/kg)

[[record]]
smiles_text = "O=C(Nc1ccnn1-c1ccccc1)N1CCN2C(=O)N([C@H]3C[C@@H]3c3ccccc3)C(=O)[C@@H]2C1"
readout_number = 43

[[record]]
smiles_text = "N#Cc1cc(Cl)c(NC(=O)N2CCN3C(=O)N([C@H]4C[C@@H]4c4ccccc4)C(=O)[C@@H]3C2)c(Cl)c1"
readout_number = 2

[[record]]
smiles_text = "N#Cc1cccc(-c2ncccc2NC(=O)N2CCN3C(=O)N([C@H]4C[C@@H]4c4ccccc4)C(=O)[C@@H]3C2)c1"
readout_number = 48

[[record]]
smiles_text = "C[C@@]12CN(C(=O)Nc3ccnn3-c3ccccc3)CCN1C(=O)N([C@H]1C[C@@H]1c1ccccc1)C2=O"
readout_number = 22


---

Target Or Test System: UniProt P11712
Sequence (P11712 whole entry): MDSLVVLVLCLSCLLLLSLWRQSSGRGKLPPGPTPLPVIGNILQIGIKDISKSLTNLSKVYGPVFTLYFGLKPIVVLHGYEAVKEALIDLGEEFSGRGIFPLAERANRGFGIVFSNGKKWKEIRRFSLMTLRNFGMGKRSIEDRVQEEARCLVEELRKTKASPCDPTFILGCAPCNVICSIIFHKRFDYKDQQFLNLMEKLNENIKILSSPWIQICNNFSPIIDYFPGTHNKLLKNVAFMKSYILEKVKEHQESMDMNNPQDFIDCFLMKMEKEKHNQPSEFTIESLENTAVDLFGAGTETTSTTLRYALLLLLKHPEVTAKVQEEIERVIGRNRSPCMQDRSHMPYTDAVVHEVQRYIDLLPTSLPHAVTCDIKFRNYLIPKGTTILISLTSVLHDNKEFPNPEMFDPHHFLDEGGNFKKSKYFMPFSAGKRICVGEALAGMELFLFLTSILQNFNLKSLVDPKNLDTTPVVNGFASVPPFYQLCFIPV
Assay Method Text: Inhibition of CYP2C9
Type: ADME
Outcome Measure: IC50

[[record]]
smiles_text = "C[C@@]12CN(C(=O)Nc3ccnn3-c3ccccc3)CCN1C(=O)N([C@H]1C[C@@H]1c1ccccc1)C2=O"
target_or_test_system = "UniProt P11712"
result = "> 40 µM"


---

Assay Method Text: Oral bioavailability in rat
Assay type: ADME, organism-based
Measurement Conditions: in vivo
Entries and their bioavailability
Outcome Measure: bioavailability (%)

[[record]]
smiles_text = "O=C(Nc1cccc(Cl)c1Cl)N1CCN2C(=O)N([C@H]3C[C@@H]3c3ccccc3)C(=O)[C@@H]2C1"
measurement_unit = "%"
readout_number = 30

[[record]]
smiles_text = "O=C(Nc1cccnc1-c1ccsc1)N1CCN2C(=O)N([C@H]3C[C@@H]3c3ccccc3)C(=O)[C@@H]2C1"
measurement_unit = "%"
readout_number = 41

[[record]]
smiles_text = "O=C(Nc1ccnn1-c1ccccc1)N1CCN2C(=O)N([C@H]3C[C@@H]3c3ccccc3)C(=O)[C@@H]2C1"
measurement_unit = "%"
readout_number = 88

[[record]]
smiles_text = "C[C@@]12CN(C(=O)Nc3ccnn3-c3ccccc3)CCN1C(=O)N([C@H]1C[C@@H]1c1ccccc1)C2=O"
measurement_unit = "%"
readout_number = 40

[[record]]
smiles_text = "N#Cc1cc(Cl)c(NC(=O)N2CCN3C(=O)N([C@H]4C[C@@H]4c4ccccc4)C(=O)[C@@H]3C2)c(Cl)c1"
measurement_unit = "%"
readout_number = 56

[[record]]
smiles_text = "O=C(Nc1cccnc1-c1ccccc1)N1CCN2C(=O)N([C@H]3C[C@@H]3c3ccccc3)C(=O)[C@@H]2C1"
measurement_unit = "%"
readout_number = 31

[[record]]
smiles_text = "CS(=O)(=O)c1cc(Cl)c(NC(=O)N2CCN3C(=O)N([C@H]4C[C@@H]4c4ccccc4)C(=O)[C@@H]3C2)c(Cl)c1"
measurement_unit = "%"
readout_number = 74

[[record]]
smiles_text = "N#Cc1cccc(-c2ncccc2NC(=O)N2CCN3C(=O)N([C@H]4C[C@@H]4c4ccccc4)C(=O)[C@@H]3C2)c1"
measurement_unit = "%"
readout_number = 43


---

Assay Method Text: Half life in dog
Format: ADME, organism-based, Canis lupus familiaris
Measurement Conditions: in vivo
Think of 3 h as a floor: if half-life stands on it or above, it is Satisfied; beneath it, Not satisfied.

[[record]]
smiles_text = "O=C(Nc1ccnn1-c1ccccc1)N1CCN2C(=O)N([C@H]3C[C@@H]3c3ccccc3)C(=O)[C@@H]2C1"
assigned_class = "Not satisfied"

[[record]]
smiles_text = "O=C(Nc1cccc(Cl)c1Cl)N1CCN2C(=O)N([C@H]3C[C@@H]3c3ccccc3)C(=O)[C@@H]2C1"
assigned_class = "Satisfied"

[[record]]
smiles_text = "C[C@@]12CN(C(=O)Nc3ccnn3-c3ccccc3)CCN1C(=O)N([C@H]1C[C@@H]1c1ccccc1)C2=O"
assigned_class = "Not satisfied"

[[record]]
smiles_text = "O=C(Nc1cccnc1-c1ccsc1)N1CCN2C(=O)N([C@H]3C[C@@H]3c3ccccc3)C(=O)[C@@H]2C1"
assigned_class = "Satisfied"

[[record]]
smiles_text = "CS(=O)(=O)c1cc(Cl)c(NC(=O)N2CCN3C(=O)N([C@H]4C[C@@H]4c4ccccc4)C(=O)[C@@H]3C2)c(Cl)c1"
assigned_class = "Not satisfied"


---

Target Or Test System: Cytochrome P450 2D6 (Homo sapiens, UniProt P10635)
Sequence (P10635 whole entry): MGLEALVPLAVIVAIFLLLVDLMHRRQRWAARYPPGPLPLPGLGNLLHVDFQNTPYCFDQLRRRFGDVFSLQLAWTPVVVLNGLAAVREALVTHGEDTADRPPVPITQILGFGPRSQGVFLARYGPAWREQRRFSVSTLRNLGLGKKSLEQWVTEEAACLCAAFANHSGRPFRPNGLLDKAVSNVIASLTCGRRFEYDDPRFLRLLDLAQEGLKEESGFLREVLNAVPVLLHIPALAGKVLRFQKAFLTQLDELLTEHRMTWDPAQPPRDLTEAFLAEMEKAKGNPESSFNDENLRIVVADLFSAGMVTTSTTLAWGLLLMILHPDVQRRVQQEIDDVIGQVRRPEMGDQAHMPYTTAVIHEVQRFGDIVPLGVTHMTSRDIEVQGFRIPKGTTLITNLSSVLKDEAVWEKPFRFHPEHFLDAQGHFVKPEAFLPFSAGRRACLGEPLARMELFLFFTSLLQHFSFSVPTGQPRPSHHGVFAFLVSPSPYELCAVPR
pIC50: −log10 of the molar value.
Outcome Measure: pIC50

[[record]]
smiles_text = "C[C@@]12CN(C(=O)Nc3ccnn3-c3ccccc3)CCN1C(=O)N([C@H]1C[C@@H]1c1ccccc1)C2=O"
target_or_test_system = "Cytochrome P450 2D6 (Homo sapiens, UniProt P10635)"
outcome_measure = "pIC50"
result = "< 4.40"


---

Target Or Test System: Protein smoothened (Homo sapiens)
Assay Method Text: Displacement of BODIPY-cyclopamine from human Smo expressed in HEK293 cells in presence of 2% fetal calf serum
Assay type: cell-based
pIC50: −log10 of the molar value.
Entries and their pIC50
Outcome Measure: pIC50

[[record]]
molecule = "O=C(Nc1cccc(Cl)c1Cl)N1CCN2C(=O)N([C@H]3C[C@@H]3c3ccccc3)C(=O)[C@@H]2C1"
readout_number = 6.64

[[record]]
molecule = "C[C@@]12CN(C(=O)Nc3ccccc3-c3ccccc3)CCN1C(=O)N([C@H]1C[C@@H]1c1ccccc1)C2=O"
readout_number = 7.72

[[record]]
molecule = "O=C(Nc1ccccc1-c1ccccc1)N1CCN2C(=O)N(C3CC3c3ccccc3)C(=O)C2C1 (stereo in doubt; 5)"
readout_number = 7.02

[[record]]
molecule = "CS(=O)(=O)c1cc(Cl)c(NC(=O)N2CCN3C(=O)N([C@H]4C[C@@H]4c4ccccc4)C(=O)[C@@H]3C2)c(Cl)c1"
readout_number = 7.38

